Cited source: PubChem BioAssay AID1963427

Test system: 317291-083-R-J1-PDC complex spheroid growth
measurement-protocol: Anticancer human tumor 317291-083-R-J1-PDC patient-derived soft tissue sarcoma cell line growth inhibition [Asc]
conditions-used: curve of first compound; second compound 0.03 µM
Entries and their measured IC50 follow.

Past entries and their recorded results:
NC(=O)C(=Cn1cnc(-c2cc(C(F)(F)F)cc(C(F)(F)F)c2)n1)c1cncnc1 + CCN1C(C(=O)NC23CCC(C(=O)O)(CC2)CC3)C(c2cccc(Cl)c2F)C2(C(=O)Nc3cc(Cl)ccc32)C12CCCCC2 | 0.0215 µM
Cc1nc(N2CCC3(CC2)COC(C)C3N)c(CO)nc1Sc1ccnc(N)c1Cl (centres undefined) + CCN1C(C(=O)NC23CCC(C(=O)O)(CC2)CC3)C(c2cccc(Cl)c2F)C2(C(=O)Nc3cc(Cl)ccc32)C12CCCCC2 | 2.83 µM
C#Cc1c(F)ccc2cc(O)cc(-c3ncc4c(N5CC6CCC(C5)N6)nc(OCC56CCCN5CC(F)C6)nc4c3F)c12 (centres undefined) + CCN1C(C(=O)NC23CCC(C(=O)O)(CC2)CC3)C(c2cccc(Cl)c2F)C2(C(=O)Nc3cc(Cl)ccc32)C12CCCCC2 | > 10 µM
CCN1CCN(Cc2ccc(Nc3ncc(F)c(-c4cc(F)c5nc(C)n(C(C)C)c5c4)n3)nc2)CC1 + CCN1C(C(=O)NC23CCC(C(=O)O)(CC2)CC3)C(c2cccc(Cl)c2F)C2(C(=O)Nc3cc(Cl)ccc32)C12CCCCC2 | > 1 µM
Cn1ncnc1[C@H]1c2n[nH]c(=O)c3cc(F)cc(c23)N[C@@H]1c1ccc(F)cc1 + CCN1C(C(=O)NC23CCC(C(=O)O)(CC2)CC3)C(c2cccc(Cl)c2F)C2(C(=O)Nc3cc(Cl)ccc32)C12CCCCC2 | > 0.1 µM

I have this compound here, C=CC(=O)N1CCN(c2nc(=O)n(-c3c(C)ccnc3C(C)C)c3nc(-c4c(O)cccc4F)c(F)cc23)C(C)C1 (centres undefined) + CCN1C(C(=O)NC23CCC(C(=O)O)(CC2)CC3)C(c2cccc(Cl)c2F)C2(C(=O)Nc3cc(Cl)ccc32)C12CCCCC2 , and I need its recorded IC50.
> 10 µM

I have this compound here, O=C(c1cc(Cc2n[nH]c(=O)c3ccccc23)ccc1F)N1CCN(C(=O)C2CC2)CC1 + CCN1C(C(=O)NC23CCC(C(=O)O)(CC2)CC3)C(c2cccc(Cl)c2F)C2(C(=O)Nc3cc(Cl)ccc32)C12CCCCC2 , and I need its recorded IC50.
> 10 µM

I have this compound here, C=C(F)C(=O)N1CCN(c2nc(OCC3CCCN3C)nc3c2CCN(c2cccc4cccc(Cl)c24)C3)CC1CC#N (centres undefined) + CCN1C(C(=O)NC23CCC(C(=O)O)(CC2)CC3)C(c2cccc(Cl)c2F)C2(C(=O)Nc3cc(Cl)ccc32)C12CCCCC2 , and I need its recorded IC50.
2.83 µM

I have this compound here, NC1CCC(NC2CC2c2ccccc2)CC1 (centres undefined) + CCN1C(C(=O)NC23CCC(C(=O)O)(CC2)CC3)C(c2cccc(Cl)c2F)C2(C(=O)Nc3cc(Cl)ccc32)C12CCCCC2 , and I need its recorded IC50.
> 0.1 µM

----------
Tested on: 317291-083-R-J1-PDC complex spheroid growth
measurement-protocol: Anticancer human tumor 317291-083-R-J1-PDC cell line growth inhibition [Asc];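 further: compound exposure lasted seven days after spheroids formed for three days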;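 on viability, T/C: 100% = DMSO vehicle control wells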
conditions-used: second compound 0.316 µM; first compound 0.01 µM; stronger effect = lower value
assay-readout: viability, T/C

Past entries and their recorded results:
O=C(c1ccc(F)c(F)c1Nc1ccc(I)cc1F)N1CC(O)([C@@H]2CCCCN2)C1 + CNC(C)C(=O)NC1CN(S(=O)(=O)c2cccc(S(=O)(=O)N3CCC4CCC(C(=O)NC(c5ccccc5)c5ccccc5)N4C(=O)C(NC(=O)C(C)NC)C3)c2)CCC2CCC(C(=O)NC(c3ccccc3)c3ccccc3)N2C1=O | 63.7%
NC1CCC(NC2CC2c2ccccc2)CC1 (centres undefined) + Cc1c(S(C)(=O)=O)c(-c2cc(F)cc(N3CCN(c4ccc(NS(=O)(=O)c5ccc(NC(CCN6CCC(C(=O)OCCCP(=O)(O)O)CC6)CSc6ccccc6)c(S(=O)(=O)C(F)(F)F)c5)cc4)CC3)c2)c(-c2ccc(Cl)cc2)n1C(C)C | 106%
O=C(c1ccc(F)c(F)c1Nc1ccc(I)cc1F)N1CC(O)([C@@H]2CCCCN2)C1 + Cc1c(S(C)(=O)=O)c(-c2cc(F)cc(N3CCN(c4ccc(NS(=O)(=O)c5ccc(NC(CCN6CCC(C(=O)OCCCP(=O)(O)O)CC6)CSc6ccccc6)c(S(=O)(=O)C(F)(F)F)c5)cc4)CC3)c2)c(-c2ccc(Cl)cc2)n1C(C)C | 76.7%

Continue with the molecule presented below.
I have this molecule here, CCN1CCN(Cc2ccc(Nc3ncc(F)c(-c4cc(F)c5nc(C)n(C(C)C)c5c4)n3)nc2)CC1 + CNC(C)C(=O)NC1CN(S(=O)(=O)c2cccc(S(=O)(=O)N3CCC4CCC(C(=O)NC(c5ccccc5)c5ccccc5)N4C(=O)C(NC(=O)C(C)NC)C3)c2)CCC2CCC(C(=O)NC(c3ccccc3)c3ccccc3)N2C1=O , and I need its recorded viability, T/C.
49.4%
